# key: entry, value: Cap analog/eIF4E affinity (KAS)
Target: UniProt:P63073
Assay: Binding affinity of cap analogs to eIF4E by fluorescence titration
Settings: equilibrium association constant; 20 °C, pH 7.2, ionic strength 150 mM

compound | system.name | Cap analog/eIF4E affinity (KAS), μM^−1
[BH3-]P(=O)(OC[C@H]1O[C@@H](n2cnc3c(=O)[nH]c(N)nc32)[C@H](O)[C@@H]1O)OP(=O)(O)OP(=O)(O)OC[C@H]1O[C@@H](n2c[n+](C)c3c(=O)[nH]c(N)nc32)[C@H](O)[C@@H]1O (single isomer, unassigned) [m^7GpppBH3G (D2), m^7GpppBH3G] | UniProt:P63073 | 14.4
C[n+]1cn([C@@H]2O[C@H](COP(=O)(O)OP(=O)(O)OP(=O)(O)OC[C@H]3O[C@@H](n4c[n+](C)c5c(=O)[nH]c(N)nc54)[C@H](O)[C@@H]3O)[C@@H](O)[C@H]2O)c2nc(N)[nH]c(=O)c21 [m^7Gpppm^7G, reference compound] | UniProt:P63073 | 5.0
[BH3-]P(=O)(OP(=O)(O)OCC1OC(n2cnc3c(=O)[nH]c(N)nc32)C(O)C1O)OP(=O)(O)OCC1OC(n2c[n+](C)c3c(=O)[nH]c(N)nc32)C(O)C1O (single isomer, unassigned) [m^7GppBH3pG (D2), m^7GppBH3pG] | UniProt:P63073 | 13.0

----------
Molecular target: eIF4E (Mus musculus, UniProt P63073)
Sequence (P63073 28-217 limits assumed): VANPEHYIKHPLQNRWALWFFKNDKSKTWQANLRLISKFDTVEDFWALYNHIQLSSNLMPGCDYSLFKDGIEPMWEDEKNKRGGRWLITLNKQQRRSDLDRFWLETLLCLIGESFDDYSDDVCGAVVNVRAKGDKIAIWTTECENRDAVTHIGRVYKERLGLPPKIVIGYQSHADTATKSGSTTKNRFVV
Test: Binding affinity of cap analogs to eIF4E by fluorescence titration
Settings: equilibrium association constant; 20 °C, pH 7.2, ionic strength 150 mM
quantity.measured: Cap analog/eIF4E affinity (KAS) (μM^−1)

compound | system.name | uom | endpoint.value
[BH3-]P(=O)(OP(=O)(O)OCC1OC(n2cnc3c(=O)[nH]c(N)nc32)C(O)C1O)OP(=O)(O)OCC1OC(n2c[n+](C)c3c(=O)[nH]c(N)nc32)C(O)C1O (single isomer, unassigned) [m^7GppBH3pG (D1), m^7GppBH3pG] | eIF4E (Mus musculus, UniProt P63073) | μM^−1 | 44
CO[C@@H]1[C@H](O)[C@@H](COP(=O)(O)OP(=O)([O-])OP(=O)(O)OC[C@H]2O[C@@H](n3cnc4c(=O)[nH]c(N)nc43)[C@H](O)[C@@H]2O)O[C@H]1n1c[n+](C)c2c(O)nc(N)nc21 [m2^7,2′-OGpppG, reference compound] | eIF4E (Mus musculus, UniProt P63073) | μM^−1 | 10.8
[BH3-]P(=O)(OC[C@H]1O[C@@H](n2cnc3c(=O)[nH]c(N)nc32)[C@H](O)[C@@H]1O)OP(=O)(O)OP(=O)(O)OC[C@H]1O[C@@H](n2c[n+](C)c3c(=O)[nH]c(N)nc32)[C@H](OC)[C@@H]1O (single isomer, unassigned) [m2^7,2′-OGpppBH3G (D2), m2^7,2′-OGpppBH3G] | eIF4E (Mus musculus, UniProt P63073) | μM^−1 | 14.4
[BH3-]P(=O)(OP(=O)(O)OCC1OC(n2cnc3c(=O)[nH]c(N)nc32)C(O)C1O)OP(=O)(O)OCC1OC(n2c[n+](C)c3c(=O)[nH]c(N)nc32)C(OC)C1O (single isomer, unassigned) [m2^7,2′-OGppBH3pG (D1), m2^7,2′-OGppBH3pG] | eIF4E (Mus musculus, UniProt P63073) | μM^−1 | 39.4
[BH3-]P(=O)(OC[C@H]1O[C@@H](n2cnc3c(=O)[nH]c(N)nc32)[C@H](O)[C@@H]1O)OP(=O)(O)OP(=O)(O)OC[C@H]1O[C@@H](n2c[n+](C)c3c(=O)[nH]c(N)nc32)[C@H](OC)[C@@H]1O (single isomer, unassigned) [m2^7,2′-OGpppBH3G (D1), m2^7,2′-OGpppBH3G] | eIF4E (Mus musculus, UniProt P63073) | μM^−1 | 15.3
[BH3-]P(=O)(OC[C@H]1O[C@@H](n2cnc3c(=O)[nH]c(N)nc32)[C@H](O)[C@@H]1O)OP(=O)(O)OP(=O)(O)OC[C@H]1O[C@@H](n2c[n+](C)c3c(=O)[nH]c(N)nc32)[C@H](O)[C@@H]1O (single isomer, unassigned) [m^7GpppBH3G (D1), m^7GpppBH3G] | eIF4E (Mus musculus, UniProt P63073) | μM^−1 | 14.5
CO[C@H]1[C@@H](O)[C@H]([n+]2cn(C)c3c(=O)[nH]c(N)nc32)O[C@@H]1COP(=O)([O-])OP(=O)(O)OP(=O)(O)OC[C@H]1O[C@@H](n2cnc3c(=O)[nH]c(N)nc32)[C@H](O)[C@@H]1O [m2^7,3′-OGpppG, 7-methyl(3′-O-methyl)GpppG, reference compound] | eIF4E (Mus musculus, UniProt P63073) | μM^−1 | 10.2

----------
Test system: rabbit reticulocyte lysate system
Assay: In vitro translation efficiency of capped luciferase mRNA with 31-base poly(A) tail, method II transcripts
Format: biochemical
Conditions: experiment 4
quantity.measured: Translation efficiency in comparison to m^7GpppG-LUC-(A)31 mRNA, Experiment No. 4

molecule | endpoint.value
CO[C@@H]1[C@H](O)[C@@H](COP(=O)(O)OP(O)(=[Se])OP(=O)(O)OC[C@H]2O[C@@H](n3cnc4c(=O)[nH]c(N)nc43)[C@H](O)[C@@H]2O)O[C@H]1n1c[n+](C)c2c(=O)[nH]c(N)nc21 (single isomer, unassigned) [m2^7,2′-OGppSepG (D1), m2^7,2′-OGppSepG] | 2.65
Cn1c[n+]([C@@H]2O[C@H](COP(=O)(O)OP(=O)(O)OP(=O)(O)OC[C@H]3O[C@@H](n4cnc5c(=O)[nH]c(N)nc54)[C@H](O)[C@@H]3O)[C@@H](O)[C@H]2O)c2nc(N)[nH]c(=O)c21 [m^7GpppG, m^7G(5′)ppp(5′)G, reference compound] | 1.00
[BH3-]P(=O)(OC[C@H]1O[C@@H](n2cnc3c(=O)[nH]c(N)nc32)[C@H](O)[C@@H]1O)OP(=O)(O)OP(=O)(O)OC[C@H]1O[C@@H](n2c[n+](C)c3c(=O)[nH]c(N)nc32)[C@H](OC)[C@@H]1O (single isomer, unassigned) [m2^7,2′-OGpppBH3G (D2), m2^7,2′-OGpppBH3G] | 1.76
[BH3-]P(=O)(OP(=O)(O)OCC1OC(n2cnc3c(=O)[nH]c(N)nc32)C(O)C1O)OP(=O)(O)OCC1OC(n2c[n+](C)c3c(=O)[nH]c(N)nc32)C(OC)C1O (single isomer, unassigned) [m2^7,2′-OGppBH3pG (D1), m2^7,2′-OGppBH3pG] | 1.87
[BH3-]P(=O)(OP(=O)(O)OCC1OC(n2cnc3c(=O)[nH]c(N)nc32)C(O)C1O)OP(=O)(O)OCC1OC(n2c[n+](C)c3c(=O)[nH]c(N)nc32)C(OC)C1O (single isomer, unassigned) [m2^7,2′-OGppBH3pG (D2), m2^7,2′-OGppBH3pG] | 3.16
Nc1nc2c(ncn2[C@@H]2O[C@H](COP(=O)(O)OP(=O)(O)OP(=O)(O)OC[C@H]3O[C@@H](n4cnc5c(N)ncnc54)[C@H](O)[C@@H]3O)[C@@H](O)[C@H]2O)c(=O)[nH]1 [ApppG, reference compound] | 0.19
CO[C@@H]1[C@H](O)[C@@H](COP(=O)([O-])OP(O)(=S)OP(=O)(O)OC[C@H]2O[C@@H](n3cnc4c(=O)[nH]c(N)nc43)[C@H](O)[C@@H]2O)O[C@H]1[n+]1cn(C)c2c(=O)[nH]c(N)nc21 (single isomer, unassigned) [m2^7,2′-OGppSpG (D1), m2^7,2′-OGppSpG, reference compound] | 2.92

----------
Target: Human DcpS (Homo sapiens)
Construct: made in house; host or cells: Escherichia coli
Sequence (Q96C86 whole entry): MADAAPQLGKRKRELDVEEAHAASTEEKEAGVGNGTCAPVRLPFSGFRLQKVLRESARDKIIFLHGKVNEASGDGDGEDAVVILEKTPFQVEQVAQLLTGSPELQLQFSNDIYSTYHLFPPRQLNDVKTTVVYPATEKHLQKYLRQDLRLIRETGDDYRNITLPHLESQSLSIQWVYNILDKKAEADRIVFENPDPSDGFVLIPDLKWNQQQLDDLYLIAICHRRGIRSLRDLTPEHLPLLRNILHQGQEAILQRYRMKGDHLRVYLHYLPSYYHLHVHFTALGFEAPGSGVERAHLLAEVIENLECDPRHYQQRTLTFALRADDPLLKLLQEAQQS
Assay: Assay of susceptibility to DcpS (RP HPLC)
Format: biochemical
Conditions: 40 μM cap analog, 30° C., up to 120 min
Procedure: Human DcpS was expressed in Escherichia coli as described in L. Cohen et al., “Nematode m^7GpppG and m3^2,2,7GpppG decapping: activities in Ascaris embryos and characterization of C. elegans scavenger DcpS,” RNA, vol. 10, pp. 1609-1624 (2004). […] Samples were analyzed without further treatment by analytical RP HPLC with a linear gradient of methanol in 0.1 M KH2PO4, pH 6.0, from 0-50% over 15 min.

compound | Susceptibility to DcpS
[BH3-]P(=O)(OP(=O)(O)OCC1OC(n2cnc3c(=O)[nH]c(N)nc32)C(O)C1O)OP(=O)(O)OCC1OC(n2c[n+](C)c3c(=O)[nH]c(N)nc32)C(O)C1O (single isomer, unassigned) [m^7GppBH3pG (D2), m^7GppBH3pG] | resistant
Cn1c[n+]([C@@H]2O[C@H](COP(=O)(O)OP(=O)(O)OP(=O)(O)OC[C@H]3O[C@@H](n4cnc5c(=O)[nH]c(N)nc54)[C@H](O)[C@@H]3O)[C@@H](O)[C@H]2O)c2nc(N)[nH]c(=O)c21 [m^7GpppG, m^7G(5′)ppp(5′)G, reference compound] | hydrolyzed
[BH3-]P(=O)(OP(=O)(O)OCC1OC(n2cnc3c(=O)[nH]c(N)nc32)C(O)C1O)OP(=O)(O)OCC1OC(n2c[n+](C)c3c(=O)[nH]c(N)nc32)C(O)C1O (single isomer, unassigned) [m^7GppBH3pG (D1), m^7GppBH3pG] | resistant
[BH3-]P(=O)(OC[C@H]1O[C@@H](n2cnc3c(=O)[nH]c(N)nc32)[C@H](O)[C@@H]1O)OP(=O)(O)OP(=O)(O)OC[C@H]1O[C@@H](n2c[n+](C)c3c(=O)[nH]c(N)nc32)[C@H](OC)[C@@H]1O (single isomer, unassigned) [m2^7,2′-OGpppBH3G (D2), m2^7,2′-OGpppBH3G] | hydrolyzed
[BH3-]P(=O)(OC[C@H]1O[C@@H](n2cnc3c(=O)[nH]c(N)nc32)[C@H](O)[C@@H]1O)OP(=O)(O)OP(=O)(O)OC[C@H]1O[C@@H](n2c[n+](C)c3c(=O)[nH]c(N)nc32)[C@H](O)[C@@H]1O (single isomer, unassigned) [m^7GpppBH3G (D2), m^7GpppBH3G] | hydrolyzed
